Measured values drawn from PubChem BioAssay AID2060627 for this set.

System: 156681-154-R-J1-PDC complex spheroid viability
measurement-protocol: Anticancer human tumor 156681-154-R-J1-PDC patient-derived melanoma cell line growth inhibition [CLK]; active means viability on the fitted dose curve at most 10% of control; inactive means the rest
test-context: second compound 10 µM; first compound 1 µM
Select the correct class. Options are active, inactive and nothing else.

C#Cc1c(F)ccc2cc(O)cc(-c3ncc4c(N5CC6CCC(C5)N6)nc(OCC56CCCN5CC(F)C6)nc4c3F)c12 (centres undefined) + CN1CCN(c2cc(C(=O)Nc3cc4cc(-c5cnn(C)c5)ccc4cn3)ccn2)CC1: active

Challenge: For O=C(c1cc(Cc2n[nH]c(=O)c3ccccc23)ccc1F)N1CCN(C(=O)C2CC2)CC1 + CNC(=O)c1ccc(Nc2nc(OC3CCCC3)c3c(-c4ccc5nc(C)oc5c4)c[nH]c3n2)c(OC)c1 , which call appears in the assay record?
Response given: inactive

Challenge: Hi team, can someone confirm the assay call for COc1ccc([C@@H](O)c2cc(-c3ncnc4cc(N5CCOCC5)ccc34)c(F)cc2Cl)nn1 + CNC(=O)c1ccc(Nc2nc(OC3CCCC3)c3c(-c4ccc5nc(C)oc5c4)c[nH]c3n2)c(OC)c1 ?
Response given: inactive

Challenge: Test call, this compound: CCN1CCN(Cc2ccc(Nc3ncc(F)c(-c4cc(F)c5nc(C)n(C(C)C)c5c4)n3)nc2)CC1 + CNC(=O)c1ccc(Nc2nc(OC3CCCC3)c3c(-c4ccc5nc(C)oc5c4)c[nH]c3n2)c(OC)c1
Response given: inactive

====

System: 156681-154-R-J1-PDC complex spheroid viability
measurement-protocol: Anticancer human tumor 156681-154-R-J1-PDC cell line growth inhibition [CLK]; active = viability on the fitted dose curve at most 10% of control; inactive = the rest;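 further: spheroids exposed to the agents for seven days; 100% = DMSO vehicle control viability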
test-context: second compound 10 µM; first compound 0.003 µM
Hi there, use one of these labels in your reply, thanks! active, inactive

Examples with answers:
C=CC(=O)Nc1cc(Nc2nccc(-c3cn(C)c4ccccc34)n2)c(OC)cc1N(C)CCN(C)C + CNC(=O)c1ccc(Nc2nc(OC3CCCC3)c3c(-c4ccc5nc(C)oc5c4)c[nH]c3n2)c(OC)c1: inactive
C=CC(=O)Nc1cc(Nc2nccc(-c3cn(C)c4ccccc34)n2)c(OC)cc1N(C)CCN(C)C + CN1CCN(c2cc(C(=O)Nc3cc4cc(-c5cnn(C)c5)ccc4cn3)ccn2)CC1: active
CC(C)CC(NC(=O)C(Cc1ccccc1)NC(=O)c1cnccn1)B(O)O (centres undefined) + CN1CCN(c2cc(C(=O)Nc3cc4cc(-c5cnn(C)c5)ccc4cn3)ccn2)CC1: active

Challenge: Fill in: this test's call for CC(C)CC(NC(=O)C(Cc1ccccc1)NC(=O)c1cnccn1)B(O)O (centres undefined) + CNC(=O)c1ccc(Nc2nc(OC3CCCC3)c3c(-c4ccc5nc(C)oc5c4)c[nH]c3n2)c(OC)c1 is ___
Response given: active

====

System: 156681-154-R-J1-PDC complex spheroid viability
measurement-protocol: Anticancer human tumor 156681-154-R-J1-PDC cell line growth inhibition [CLK];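 further: spheroids exposed to the agents for seven days; 100% = DMSO vehicle control viability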
test-context: second compound 10 µM; first compound 1 µM; hits give low values
Here the recorded viability, T/C is given for each entry.
Report the value in % with no unit label.

Examples with their reported viability, T/C follow.
Nc1ccn(C2OC(CO)C(O)C2(F)F)c(=O)n1 (stereo not given) + CN1CCN(c2cc(C(=O)Nc3cc4cc(-c5cnn(C)c5)ccc4cn3)ccn2)CC1: 4.06
CC1(C)CCC(CN2CCN(c3ccc(C(=O)NS(=O)(=O)c4ccc(NCC5CCOCC5)c([N+](=O)[O-])c4)c(Oc4cnc5[nH]ccc5c4)c3)CC2)=C(c2ccc(Cl)cc2)C1 + CN1CCN(c2cc(C(=O)Nc3cc4cc(-c5cnn(C)c5)ccc4cn3)ccn2)CC1: 0.17
COc1cccc2c1C(=O)c1c(O)c3c(c(O)c1C2=O)CC(O)(C(=O)CO)CC3OC1CC(N)C(O)C(C)O1 (stereo not given) + CNC(=O)c1ccc(Nc2nc(OC3CCCC3)c3c(-c4ccc5nc(C)oc5c4)c[nH]c3n2)c(OC)c1: 0.71
COC1C=CCC(C)C(C)S(=O)(=O)NC(=O)c2ccc3c(c2)N(CC2CCC21)CC1(CCCc2cc(Cl)ccc21)CO3 (stereo not given) + CN1CCN(c2cc(C(=O)Nc3cc4cc(-c5cnn(C)c5)ccc4cn3)ccn2)CC1: 0.22

Please examine the following record next.
Challenge: Annotate the compound CCCS(=O)(=O)Nc1ccc(F)c(C(=O)c2c[nH]c3ncc(-c4ccc(Cl)cc4)cc23)c1F + CNC(=O)c1ccc(Nc2nc(OC3CCCC3)c3c(-c4ccc5nc(C)oc5c4)c[nH]c3n2)c(OC)c1 with its measured viability, T/C.
Response given: 32.5
